FYI, the data here is from patent US12246076B2.

- assay.protocol: in vivo
- settings: male, NRG, mouse, iv, total radioactivity, Biodistribution Fat Mean
Numbered stars: 1 amine (or outer) side, 2 acyl side, 3 side chain; on linkers, the order of the positions; unused ones are H or OH. Square brackets hold non-standard residues; d marks the D form. Peptide text beside a SMILES is read from it. * marks the point of attachment. DOTA = O=C(O)CN1CCN(CC(=O)O)CCN(CC(=O)*)CCN(CC(=O)O)CC1; Leuψ(CH2N)ThzNH2 = CC(C)C[C@@H](CN1CSC[C@H]1C(N)=O)N*; NMeH = CN[C@@H](Cc1c[nH]cn1)C(=O)O; X1 = O=C(CN1CCC(N[*:1])CC1)[*:2]; Tle = CC(C)(C)[C@H](N)C(=O)O; Thz = O=C(O)[C@@H]1CSCN1
reported.endpoint: tissue uptake at 1 h (%ID/g)
Number in %ID/g, nothing else.

As a guide, the following entries are already answered.
CC(C)C[C@H](NC(=O)[C@H](Cc1c[nH]cn1)NC(=O)CNC(=O)[C@@H](NC(=O)[C@H](C)NC(=O)[C@H](Cc1c[nH]c2ccccc12)NC(=O)[C@H](CCC(N)=O)NC(=O)[C@@H](Cc1ccccc1)NC(=O)CN1CCC(NC(=O)CN2CCN(CC(=O)O)CCN(CC(=O)O)CCN(CC(=O)O)CC2)CC1)C(C)(C)C)C(=O)N1CSC[C@H]1C(N)=O [^68Ga-LW01108, metal not drawn] : 0.06
CC(C)C[C@H](NC(=O)[C@H](Cc1cnc[nH]1)N(C)C(=O)CNC(=O)[C@@H](NC(=O)[C@H](C)NC(=O)[C@H](Cc1c[nH]c2ccccc12)NC(=O)[C@H](Cc1c[nH]cn1)NC(=O)[C@@H](Cc1ccccc1)NC(=O)CN1CCC(NC(=O)CN2CCN(CC(=O)O)CCN(CC(=O)O)CCN(CC(=O)O)CC2)CC1)C(C)(C)C)C(=O)N1CSC[C@H]1C(N)=O [^68Ga-LW01142, metal not drawn] ({DOTA}-[X1][dF]HWA[Tle]G[NMeH]L[Thz]-NH2) : 0.32
CC(C)C[C@H](NC(=O)[C@H](Cc1c[nH]cn1)N(C)C(=O)CNC(=O)[C@@H](NC(=O)[C@H](C)NC(=O)[C@H](Cc1c[nH]c2ccccc12)NC(=O)[C@H](CCC(N)=O)NC(=O)[C@@H](Cc1ccccc1)NC(=O)CN1CCC(NC(=O)CN2CCN(CC(=O)O)CCN(CC(=O)O)CCN(CC(=O)O)CC2)CC1)C(C)C)C(=O)N1CSC[C@H]1C(N)=O [^68Ga-LW01107, metal not drawn] : 0.05

Input: Value lookup for tissue uptake at 1 h; key = CC(C)C[C@H](NC(=O)[C@H](Cc1cnc[nH]1)N(C)C(=O)CNC(=O)[C@@H](NC(=O)[C@H](C)NC(=O)[C@H](Cc1c[nH]c2ccccc12)NC(=O)[C@H](CCC(N)=O)NC(=O)[C@@H](Cc1ccccc1)NC(=O)CN1CCC(NC(=O)CN2CCN(CC(=O)O)CCN(CC(=O)O)CCN(CC(=O)O)CC2)CC1)C(C)(C)C)C(=O)N1CSC[C@H]1C(N)=O [^68Ga-LW01110, metal not drawn]
Output: 0.09

Input: Field request: tissue uptake at 1 h | item: CC(C)C[C@@H](CN1CSC[C@H]1C(N)=O)NC(=O)[C@H](Cc1c[nH]cn1)NC(=O)CNC(=O)[C@@H](NC(=O)[C@H](C)NC(=O)[C@H](Cc1c[nH]c2ccccc12)NC(=O)[C@H](CCC(N)=O)NC(=O)[C@@H](Cc1ccccc1)NC(=O)CN1CCC(NC(=O)CN2CCN(CC(=O)O)CCN(CC(=O)O)CCN(CC(=O)O)CC2)CC1)C(C)(C)C [^68Ga-LW01158, metal not drawn] ({DOTA}-[X1][dF]QWA[Tle]GH-{Leuψ(CH2N)ThzNH2})
Output: 0.07
